The origin of these recorded values is PubChem BioAssay AID1850.

# procedure-details: PhoP regulon inhibitors, Salmonella typhi PhoP promoter GFP reporter, confirmatory (AID 1850);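 also: 0% = induced wells with vehicle and 100% = uninduced wells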
# protocol-conditions: fluorescence, 4 h, at 50 µM, hits give high values
Among all 310,000 compounds or so, about 1,000 (0.32%) were called active. The list is a sample of the results. Measured potencies and affinities stand elsewhere.
Form field: inhibition (one value per entry).
Quick reminder: number only, in %, skip the unit.

[[record]]
compound = "CN1CC(C(=O)c2ccc(F)cc2)C(c2c(F)cccc2Cl)C1 (configuration not stated)"
measure_unit = "%"
observed = 7.43

[[record]]
compound = "Cc1ccc2nsnc2c1NC(=O)c1ccc([N+](=O)[O-])o1"
measure_unit = "%"
observed = 1.72

[[record]]
compound = "O=C(NCCO)c1nc(NCCO)c2ccccc2n1"
measure_unit = "%"
observed = -2.84

[[record]]
compound = "COc1ccc(OC(C)C(=O)NCc2cccnc2)cc1 (configuration not stated)"
measure_unit = "%"
observed = -6.99

[[record]]
compound = "O=C(Nc1nc2ccccc2[nH]1)c1cccc(F)c1"
measure_unit = "%"
observed = 0.03


Give the measured inhibition of "CC(=O)c1ccc(NC(=O)c2ccc([N+](=O)[O-])o2)cc1" .
10.8

Give the measured inhibition of "Cc1cccc(NC(=O)c2ccc([N+](=O)[O-])o2)c1C" .
-7.49

Give the measured inhibition of "CCCN1CCN(CCCNC(=S)Nc2ccc3nc(N4CCN(CC)CC4)cc(C)c3c2)CC1" .
2.52

Give the measured inhibition of "COCCNc1c([N+](=O)[O-])c(=O)n(-c2ccccc2)c2ccccc12" .
-1

Give the measured inhibition of "Cc1ccc(-n2c3nc(=O)n(C)c(=O)c-3cc3ccccc32)cc1" .
8.69

Give the measured inhibition of Cc1ccc(S(=O)(=O)N2C(=O)CCC2C(=O)O/N=C(\N)c2ccccc2)cc1 (configuration not stated) .
-13.3

###

# procedure-details: PhoP regulon inhibitors, Salmonella typhi PhoP promoter GFP reporter, confirmatory (AID 1850);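 also: 0% = induced wells with vehicle and 100% = uninduced wells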
# protocol-conditions: fluorescence, 4 h, at 50 µM, hits give high values
The campaign covered roughly 310,000 compounds. About 1,000 (0.32%) were called active. Not all results are given here. Measured potencies and affinities stand elsewhere.
Form field: inhibition (one value per entry).
Quick reminder: number only, in %, skip the unit.

[[record]]
compound = "CCCOc1cccc(C(=O)Nc2cccc3ncccc23)c1"
endpoint = "inhibition"
observed = -5.81

[[record]]
compound = "CCn1cc(C(=O)O)c(=O)c2cc(F)c(N3CCN(C(=S)NC(=O)c4ccc(OC)cc4)CC3)cc21"
endpoint = "inhibition"
observed = -3.45

[[record]]
compound = "CC[n+]1c(/C=C(\\C)SC)sc2ccccc21"
endpoint = "inhibition"
observed = 8.28

[[record]]
compound = "C/C(CC(=O)Nc1cc(C)ccn1)=N\\NC(=O)c1ccncc1"
endpoint = "inhibition"
observed = 3.7

[[record]]
compound = "CCn1cc(C(=O)O)c(=O)c2cc(F)c(N3CCN(S(=O)(=O)c4ccc(Br)cc4)CC3)cc21"
endpoint = "inhibition"
observed = 2.97


Give the measured inhibition of "COc1ccc(Cc2nc3ccccc3n2CC(=O)N/N=C/c2ccc(C)cc2O)cc1OC" .
-7.1

Give the measured inhibition of "O=C(Nc1ccc(-c2nc3cccnc3s2)cc1)c1cccnc1Cl" .
16.9

Give the measured inhibition of "O=C(CSc1nc2ccccc2[nH]1)Nc1ccc(F)cc1" .
0.68
